Values from patent US20250145633A1

# TEST SYSTEM: human PDE1B enzyme (Homo sapiens (Human), UniProt Q01064)
# METHOD DESCRIPTION: IMAP TR-FRET PDE1B enzymatic assay
# Assay type: biochemical
# ASSAY CONDITIONS: negative log of half-maximal molar inhibitory concentration; 200 nM FAM-cAMP; values given as bins; read-out: PDE1b (pIC50) (converted)
IC50 overview

Query :: Report IC50 for Cc1oc2ncnc(NC3(C)CC3)c2c1C(=O)Nc1cnn(C2CCOCC2)c1 [Example 456] please.
Result :: 10 to 100 nM

Query :: Queued: Cc1nc(C)c(C2CCN(C(=O)c3c(C)oc4ncnc(NC5(C)CC5)c34)CC2)[nH]1 [Example 780]
Result :: 100 to 1000 nM

Query :: Query Cc1oc2ncnc(NC3(C)CC3)c2c1C(=O)NCc1cc([N+](=O)[O-])ccc1F [Example 614] next
Result :: < 10 nM

---

Each entry below carries its recorded IC50.
# TEST SYSTEM: human PDE1B enzyme (Homo sapiens (Human), UniProt Q01064)
# METHOD DESCRIPTION: IMAP TR-FRET PDE1B enzymatic assay
# Assay type: biochemical
# ASSAY CONDITIONS: negative log of half-maximal molar inhibitory concentration; 200 nM FAM-cAMP; values given as bins; read-out: PDE1b (pIC50) (converted)

Here are 3 molecules together with their reported answers.
Cc1oc2ncnc(NC3(C)CC3)c2c1C(=O)Nc1cnn(C2CC2)c1 [Example 645] | 10 to 100 nM
Cc1cc(CNC(=O)c2c(C)oc3ncnc(NC4(C)CC4)c23)ncn1 [Example 654] | 10 to 100 nM
Cc1oc2ncnc(NC3(C)CC3)c2c1C(=O)NCc1cccn1C [Example 111] | 10 to 100 nM

Query :: Need IC50 of Cc1cccc(CNC(=O)c2c(C)oc3ncnc(NC4(C)CC4)c23)c1 [Example 198] , thanks.
Result :: 10 to 100 nM

---

# TEST SYSTEM: human PDE1B enzyme (Homo sapiens (Human), UniProt Q01064)
# METHOD DESCRIPTION: IMAP TR-FRET PDE1B enzymatic assay
# Assay type: biochemical
# ASSAY CONDITIONS: negative log of half-maximal molar inhibitory concentration; 200 nM FAM-cAMP; values given as bins; read-out: PDE1b (pIC50) (converted)
QUANTITY MEASURED: IC50

Worked cases, IC50 given:
Cc1oc2ncnc(NC3(C)CC3)c2c1C(=O)NC1(c2cnccn2)CC1 | 10 to 100 nM
Cc1oc2ncnc(NC3(C)CC3)c2c1C(=O)N1CCOC2(CCc3ccccc32)C1 (stereo not drawn) | 100 to 1000 nM

# next compound below
Query :: Quick check: IC50 of `COc1cc(CN(C)C(=O)c2c(C)oc3ncnc(NC4(C)CC4)c23)ncn1` ?
Result :: 100 to 1000 nM

---

# TEST SYSTEM: human PDE1B enzyme (Homo sapiens (Human), UniProt Q01064)
# METHOD DESCRIPTION: IMAP TR-FRET PDE1B enzymatic assay
# Type: biochemical
# ASSAY CONDITIONS: negative log of half-maximal molar inhibitory concentration; 200 nM FAM-cAMP; values given as bins; read-out: PDE1b (pIC50) (converted)
QUANTITY MEASURED: IC50

// known answers, use as guide
Cc1oc2ncnc(NC3(C)CC3)c2c1C(=O)NC12CC3CC(CC(C3)C1)C2 [Example 270] | < 10 nM
Cc1oc2ncnc(NC3(C)CC3)c2c1C(=O)NC1(C)CC1 [Example 89] | 10 to 100 nM
COc1nccc2c1CCN(C(=O)c1c(C)oc3ncnc(NC4(C)CC4)c13)C2 [Example 40] | 10 to 100 nM
COc1ccc(N2CCN(C(=O)c3c(C)oc4ncnc(NC5(C)CC5)c34)CC2)cc1 [Example 186] | 10 to 100 nM
COc1cccc2c1OCCCN(C(=O)c1c(C)oc3ncnc(NC4(C)CC4)c13)C2 [Example 600] | 10 to 100 nM

Query :: So what does the record say about IC50 for Cc1oc2ncnc(NC3(C)CC3)c2c1C(=O)N1CCC(c2ccn(C(C)C)n2)CC1 [Example 781] ?
Result :: 10 to 100 nM

Query :: Also CCCNC(=O)c1c(C)oc2ncnc(NC3(C)CC3)c12 [Example 211] ?
Result :: 10 to 100 nM

Query :: Moving on to the next molecule: C#CCNC(=O)c1c(C)oc2ncnc(NC3(C)CC3)c12 [Example 210]
Result :: 10 to 100 nM
